Provenance of the data: ChEMBL document CHEMBL3124869

Protocol Summary: physchem
Condition Summary: octanol/water, pH 7.4
Assay Endpoint: logD

Cc1n[nH]cc1-c1cnc(N)c(O[C@H](C)c2cc(F)ccc2-n2nccn2)c1; 3.3
C[C@@H](Oc1cc(-c2cn(C)nc2C#N)cnc1N)c1cc(F)ccc1-n1nccn1; 3.3
C[C@@H](Oc1cc(-c2cnnn2C)cnc1N)c1cc(F)ccc1-n1nccn1; 2.4
COc1ncccc1-c1cnc(N)c(O[C@H](C)c2cc(F)ccc2-n2nccn2)c1; 3.7
Cc1n[nH]cc1-c1cnc(N)c(O[C@H](C)c2cc(F)ccc2F)c1; 3.4
